Target: Neu5Ac(a2-6)Gal(b1-4)GlcNAc(b1-2)Man(a1-3)Man(b1-4)GlcNAc(b1-4)GlcNAc
Experiment: glycan array binding signal (z-score within array); higher = stronger binding
Details: glycan notation: IUPAC condensed, linker removed
The entries come from a sample that favours the strongest signals as a whole.
I'd appreciate it if you could supply glycan array binding signal (z-score) values for the items below.
Give bare numbers.

Here is how some binders turned out for glycan array binding signal (z-score).
>  <binder>
CLECb-Precomplexed (Mus musculus), P43025 (protein) MAKNGLVLCILVVSLLLDQTDGYPSRMKARKHSKRRVKAKDDDLKSQVEKLWREVNALKEMQALQTVCLRGTKVHKKCYLASEGLKHYHEANEDCISKGGTLVVPRNSDEINALRDYGKRSLPGVNDFWLGINDMVTEGKFLDVHGFAVSFLNWDRAQPSGGKRENCVLFSQSAQGKWSDEACRSSKRYICEFIIPTRTRPLEQKLISEEDLAANDILDYKDDDDKV

>  <glycan array binding signal (z-score)>
0.007

$$$$
>  <binder>
Gal 4 (Canis lupus) (protein) MAYVPAPGYQPTYNPTLPYNKPIPGGLSVGMSVYIQGITSEHMRRFCVNFVAGAHPGSDIAFHFNPRFDGWDKVVFNSHLGGKWGSEEKKRSMPFRKGTHFELVFMVLAEHYKVVVNGNPFYEFGHRLPLQLVTHLQVEGDVELQSINFIGGTQPLGQGPGHTQQQPSSLPTMEGPPVFNPPVPFRKRLQGGLTVRRTVIIKGFVPFTSKSFVINFMVESSGDLALHINPRLTEGLVVRNSCLNGSWGSEDRKLSYNPFIPGQFFDLSIRCGMDRFKVYANGQHLFDFSHRLLALQNVDMLEINGDVTLSYIQV

>  <glycan array binding signal (z-score)>
-0.151

$$$$

Please go through the list and note glycan array binding signal (z-score) for each binder.
1. UEA-I (Ulex europaeus), P22972 (protein) SDDLSFKFKNFSQNGKDLSFQGDASVIETGVLQLNKVGNNLPDETGGIARYIAPIHIWNCNTGEVASFITSFSFFMETSANPKAATDGLTFFLAPPDSPLRRAGGYFGLFEDTKDNDSSYQTVAVEFDTIGSPVNFDDPGFPHIGIDVNRVKSINAERWNKRYGLNNVANVEIIYEASSKTLTASLTYPSDQTSISVTSIVDLKEILPEWVSVGFSGGTYIGRQATHEVLNWYFTSNLINTNS
2. Sebin1 (Coprinopsis cinerea), A8PEE3 (protein) MTSPFYAHIHNVQDDNTWRFTLIFANRATADEWWRAISEAPANTSIAKSITRVTPQYYTHDVNIWNIWNFFADGNIKSISERFRGRLFIVLENDRGGRGITVIPPVPIVDHVSGNWFYIRSKTAPHLFWYYDERRSSIYASKEKRTRFKISIRNPSSQTPKNAIMINTDDVTIHIKENLYVGVDNNLGHIIPTRAYRTFKFGELESGAIAGFDVVENIEERCSSTFDGASLSISGPDSSSPGEPWELV
3. OS9 (Arabidopsis thaliana) (protein) MRGSHHHHHHGMASMTGGQQMGRDLYDDDDKSRLQIFPAHLVGTFSRNNREPKYKIEFLPEDSPFHPGDNLESMVMLDKHGNRFLCYLPKEEKATSGWTSSQQNISTVMMETQQLVKLKTPDELLQPLSEKCLFRQEGWWSYEFCHQKYVRQLHVEDENKIVQEFFLGTFDPEATAAFNQTVSDASTDASQRYHSHVYTNGTTCDLTGSPREVEVRFVCAETRAMVTSITELSTCKYALTVQCPTLCKHPLFQLEKPVSHTIHCNAIPVEEDATRNKEEQAVDESPKMIADS

a:
-0.227
-0.4
6.74
